Read-out: Transforming Growth Factor (TGFA), TGFA (gene 7039)
Experiment: LTEA_HepaRG_TGFA: Life Technologies and Expression Analysis (LTEA) Assay for Transforming Growth Factor (TGFA) using HepaRG (AID 2283532)
Conditions: mRNA level, 48 h; actives raise or lower the signal
Calls of active or inactive are those of the source. How the source made its calls: active means hit-call score of the fitted dose curve at least 0.9, where 1 is the maximum; inactive means score below 0.9.

COMPOUND	AC50
CNC(=S)S	inactive
CCON=C(CC)C1=C(O)CC(c2c(C)cc(C)cc2C)CC1=O (configuration not stated)	inactive
CCNc1nc(Cl)nc(NC(C)C)n1	inactive
CCCC1COC(Cn2cncn2)(c2ccc(Cl)cc2Cl)O1 (configuration not stated)	50 µM (active)
OC(c1ccc(Cl)cc1)(c1cncnc1)c1ccccc1Cl (configuration not stated)	77.5 µM (active)
Cc1cc(Cl)ccc1OCC(=O)O	inactive
CCNc1nc(Cl)nc(NCC)n1	inactive
